protocol-text: Solubility in PBS / aqueous solubility
Type: physicochemical
condition-context: aqueous buffer; in PBS; read-out: Solubility in PBS
Would you mind telling me the reported solubility of each entry?

Q) Entry C[N+](C)(C)CCCCCCOc1ccc(/C=C/c2ccc(/C=C/c3ccc(OCCCCCC[N+](C)(C)C)cc3)cc2)cc1 [COE-T6] : reported solubility = ?
A) 76 µg/mL

Q) Can you look up the measured solubility of C[N+](C)(C)CCCCOc1ccc(/C=C/c2ccc(OCCCC[N+](C)(C)C)cc2)cc1 [COE-D4] for me?
A) 3100 µg/mL

Q) I have this compound here, C[N+](C)(C)CCCCCCOc1ccc(/C=C/c2ccc(OCCCCCC[N+](C)(C)C)cc2)cc1 [COE-D6] , and I need its recorded solubility.
A) 240 µg/mL

Q) Suppose we examine the compound C[N+](C)(C)CCCCOc1ccc(/C=C/c2ccc(/C=C/c3ccc(OCCCC[N+](C)(C)C)cc3)cc2)cc1 [COE-T4] ; what solubility value has been reported?
A) 210 µg/mL

Q) Entry C[N+](C)(C)CCCCCCCCOc1ccc(/C=C/c2ccc(OCCCCCCCC[N+](C)(C)C)cc2)cc1 [COE-D8] : reported solubility = ?
A) 65 µg/mL
